Target: T1, human TGR12 (untagged) (human, UniProt Q96LB1 1-330)
T1 sequence: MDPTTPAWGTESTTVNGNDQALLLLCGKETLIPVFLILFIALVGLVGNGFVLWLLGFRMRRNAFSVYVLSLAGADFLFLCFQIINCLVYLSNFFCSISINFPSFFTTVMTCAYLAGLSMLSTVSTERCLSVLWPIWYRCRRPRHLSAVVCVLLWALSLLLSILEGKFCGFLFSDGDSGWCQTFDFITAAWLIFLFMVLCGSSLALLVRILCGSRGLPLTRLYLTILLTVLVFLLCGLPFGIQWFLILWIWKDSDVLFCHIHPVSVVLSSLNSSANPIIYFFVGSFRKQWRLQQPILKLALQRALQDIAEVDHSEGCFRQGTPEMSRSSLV
Test: cell-based or functional assay
Where no end group is shown, it is not given here.
REPORTED_METRIC: degranulation of LAD 2 (beta-hexosaminidase release, % of total) at 300 nM (%)
Note: unit % is implicit; provide only the numeric part.

BINDER	UNIT_OF_MEASUREMENT	RECORDED_NUMBER
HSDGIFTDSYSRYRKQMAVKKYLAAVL (peptide, UniProt P18509 132-158, looked up, not fully specified; ends and bridges not checked, domain: PACAP-27) [human PACAP27 (pituitary adenylate cyclase activating polypeptide 27)]	%	71.1

Prompt line: # return recorded degranulation of LAD 2 (beta-hexosaminidase release, % of total) at 300 nM for entry DRMPCRNFFWKTFSSCK (peptide, UniProt O00230 89-105, looked up, not fully specified; ends and bridges not checked) [human cortistatin-17]
Response line: 52.8

Prompt line: # return recorded degranulation of LAD 2 (beta-hexosaminidase release, % of total) at 300 nM for entry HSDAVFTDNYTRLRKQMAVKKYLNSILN (peptide, UniProt P01282 125-152, looked up, not fully specified; ends and bridges not checked, domain: VIP; also called vasoactive intestinal peptide) [human VIP (vasoactive intestinal polypeptide)]
Response line: 63.9

Prompt line: # return recorded degranulation of LAD 2 (beta-hexosaminidase release, % of total) at 300 nM for entry HSDGIFTDSYSRYRKQMAVKKYLAAVLGKRYKQRVKNK (peptide, UniProt P18509 132-169, looked up, not fully specified; ends and bridges not checked, domain: PACAP-38) [human PACAP38 (pituitary adenylate cyclase activating polypeptide 38)]
Response line: 65.8
